experiment: Induction of GLUT4 translocation in mouse 3T3-L1 cells Cytosol by Western blot analysis; format: subcellular
pIC50: −log10 of the molar value.
endpoint: pIC50

1) CC(=O)Nc1ccc(S(=O)(=O)Nc2ccc(Nc3cc(N(C)C)nc(C)n3)cc2)cc1: 5.15
2) Cc1ccccc1CN(Cc1nnc(C(C)(C)C)o1)c1ccc2nc(O)[nH]c2c1: 5.16
3) Cc1cc(NC(=O)CCC2Cc3ccccc3NC2=O)nc(-c2ccccc2)n1 (centres undefined): 5.41
4) CS(=O)(=O)c1ccc(Nc2ccc3c(c2)OCO3)c([N+](=O)[O-])c1: 5.24

###

tested on: 3T3-L1; assay: Induction of glucose uptake in mouse 3T3-L1 cells assessed as increase in glucose uptake; assay type: functional, cell-based
endpoint: IC50 (nM)
Your answer is read as nM, so omit the unit and give the number.

1) FC(F)(F)c1cc(NC(=S)NCc2ccccc2)ccc1Cl: 61000
2) O=C1CC(c2cccc3[nH]ccc23)c2ccc(NC(=O)c3cccnc3)cc2N1 (stereo not given): 28000
3) O=C(Oc1cccc(OC(=O)c2cc(O)c(O)c(O)c2)c1OC(=O)c1cc(O)c(O)c(O)c1)c1cc(O)c(O)c(O)c1: 5000
4) COc1ccc(CN(CC[C@@H](c2ccccc2)[C@H]2CCOC(C)(C)C2)C(=O)c2ccco2)cc1OC: 110

Could you now look at the following compound, please?
QUERY: Give the reported IC50 for O=C(Oc1cccc(OC(=O)c2cccc(O)c2)c1OC(=O)c1cccc(O)c1)c1cccc(O)c1 (system: 3T3-L1).
RESULT: 300

Every entry's value here was drawn from ChEMBL document CHEMBL6096679.
